- study_target: CD3 epsilon/gamma heterodimer (Homo sapiens, UniProt P07766;P09693 P07766:23-126,P09693:23-116)
- Sequence (P07766 23-126, chain 1 of 2): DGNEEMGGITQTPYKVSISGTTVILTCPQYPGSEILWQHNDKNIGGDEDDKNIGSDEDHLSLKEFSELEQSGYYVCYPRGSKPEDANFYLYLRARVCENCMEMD
- Sequence (P09693 23-116, chain 2 of 2): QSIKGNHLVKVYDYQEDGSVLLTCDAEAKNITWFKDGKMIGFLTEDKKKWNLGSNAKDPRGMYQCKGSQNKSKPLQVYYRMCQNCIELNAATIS
- test_summary: SPR; steady state; kinetic fit suboptimal
- setup_conditions: tags: C-terminal human IgG1 Fc fusion, AcroBiosystems; chain copies: heterodimer 1:1 (inferred); label: 5'-biotin-TEG
recorded_endpoint: pKd
Here pKd is given on a logarithmic scale as minus log10 of the concentration in mol/L.

Use these answered entries as a reference point.
[[record]]
binder = "GGTCGGGTGCTACTGAGCGATTGGCTTTCCGGACTGGGGA (ssDNA) [CELTIC_21s]"
recorded_endpoint = "pKd"
reported_measurement = 6.81

[[record]]
binder = "AAGGGATTGGCGTCGGGCCTGGCGTAAGGAGGCTATGCTC (ssDNA) [CELTIC_6s]"
recorded_endpoint = "pKd"
reported_measurement = 6.54

[[record]]
binder = "GCGTAAGGGTTTGGCAGCGGGCCTGGCGGAACGCGTGTAT (ssDNA) [CELTIC_3s]"
recorded_endpoint = "pKd"
reported_measurement = 6.81


Reported pKd for CGGCAGGGGTTTGGCTCCGGGTCTGGCGAACTGGCTGAGA (ssDNA) [CELTIC_5s] was 6.74
